- assay-name: physchem
- run-parameters: water, thermodynamic from solid
assay-metric: solubility
Provide the measurement as a number trailed by its unit.

molecule CCOC(=O)C1=C(COCCN)NC(C)=C(C(=O)OC)C1c1ccccc1Cl (stereo not shown) [Crystalline amlodipine besylate, amlodipine benzenesulfonate] , solubility observed: 2350 µg/mL
